# Tested on: Methicillin-Resistant Staphylococcus aureus Isolates
# assay_name: MIC assay (NCCLS broth dilution), MRSA clinical isolates
# Type: cell-based
# condition_parameters: Staphylococcus aureus, MRSA isolate 757, 24FEB06; read-out: Minimal Inhibitory Concentration
I'd be grateful if you could share measured MIC for these entries.
Hi! Could you send only the number? It should be in µg/mL, unit omitted.

In: Recorded MIC for Cc1onc(-c2ccccc2)c1C(=O)N[C@@H]1C(=O)N2[C@@H]1SC(C)(C)[C@@H]2C(=O)O , please?
Out: 32

In: Thanks! And CC(=O)NC[C@H]1CN(c2ccc(N3CCOCC3)c(F)c2)C(=O)O1 ?
Out: 4

In: Thanks! And CN(C)c1ccc(O)c2c1C[C@H]1C[C@H]3[C@H](N(C)C)C(O)=C(C(N)=O)C(=O)[C@@]3(O)C(O)=C1C2=O ?
Out: 8

In: Thanks! And CO[C@@H]1[C@@H](OC(N)=O)[C@@H](O)[C@H](Oc2ccc3c(O)c(NC(=O)c4ccc(O)c(CC=C(C)C)c4)c(=O)oc3c2C)OC1(C)C ?
Out: 0.31

---

I'd be grateful if you could share measured log10 of MIC for these entries.
# Tested on: Methicillin-Resistant Staphylococcus aureus Isolates
# assay_name: MIC assay (NCCLS broth dilution), MRSA clinical isolates
# Type: cell-based
# condition_parameters: Staphylococcus aureus, MRSA isolate 1659, 03MAR06; read-out: Minimal Inhibitory Concentration
Recorded MIC (log10, µg/mL)

In: Recorded log10 of MIC for CC(=O)NC[C@H]1CN(c2ccc(N3CCOCC3)c(F)c2)C(=O)O1 , please?
Out: 0.30

In: Thanks! And Cc1onc(-c2ccccc2)c1C(=O)N[C@@H]1C(=O)N2[C@@H]1SC(C)(C)[C@@H]2C(=O)O ?
Out: 1.20

In: Thanks! And CN(C)[C@@H]1C(O)=C(C(N)=O)C(=O)[C@@]2(O)C(O)=C3C(=O)c4c(O)cccc4[C@@](C)(O)[C@H]3C[C@@H]12 ?
Out: -0.60

In: Thanks! And CO[C@@H]1[C@@H](OC(N)=O)[C@@H](O)[C@H](Oc2ccc3c(O)c(NC(=O)c4ccc(O)c(CC=C(C)C)c4)c(=O)oc3c2C)OC1(C)C ?
Out: -1.10

In: Thanks! And CN(C)c1ccc(O)c2c1C[C@H]1C[C@H]3[C@H](N(C)C)C(O)=C(C(N)=O)C(=O)[C@@]3(O)C(O)=C1C2=O ?
Out: -1.22

---

# System: Methicillin-Resistant Staphylococcus aureus Isolates
# assay_name: MIC assay (NCCLS broth dilution), MRSA clinical isolates
# Type: cell-based
# condition_parameters: Staphylococcus aureus, MRSA isolate 766, 22FEB06; read-out: Minimal Inhibitory Concentration
quantity: MIC

In: Recorded MIC for CN(C)[C@@H]1C(O)=C(C(N)=O)C(=O)[C@@]2(O)C(O)=C3C(=O)c4c(O)cccc4[C@@](C)(O)[C@H]3C[C@@H]12 , please?
Out: 1 µg/mL

In: Thanks! And CC(=O)NC[C@H]1CN(c2ccc(N3CCOCC3)c(F)c2)C(=O)O1 ?
Out: 4 µg/mL

In: Thanks! And Cc1onc(-c2ccccc2)c1C(=O)N[C@@H]1C(=O)N2[C@@H]1SC(C)(C)[C@@H]2C(=O)O ?
Out: > 32 µg/mL

In: Thanks! And CN(C)c1ccc(O)c2c1C[C@H]1C[C@H]3[C@H](N(C)C)C(O)=C(C(N)=O)C(=O)[C@@]3(O)C(O)=C1C2=O ?
Out: 0.12 µg/mL

In: Thanks! And CO[C@@H]1[C@@H](OC(N)=O)[C@@H](O)[C@H](Oc2ccc3c(O)c(NC(=O)c4ccc(O)c(CC=C(C)C)c4)c(=O)oc3c2C)OC1(C)C ?
Out: 0.08 µg/mL

---

# Tested on: Methicillin-Resistant Staphylococcus aureus Isolates
# assay_name: MIC assay (NCCLS broth dilution), MRSA clinical isolates
# Assay type: cell-based
# condition_parameters: Staphylococcus aureus, MRSA isolate 1022, 22FEB06; read-out: Minimal Inhibitory Concentration
Binarize MIC at 0.5 µg/mL; below is YES, at or above is NO.

In: Dear reviewer, please state whether Cc1onc(-c2ccccc2)c1C(=O)N[C@@H]1C(=O)N2[C@@H]1SC(C)(C)[C@@H]2C(=O)O [OX, oxacillin] has MIC strictly beneath 0.5 µg/mL.
Out: NO

In: Thanks! And CN(C)c1ccc(O)c2c1C[C@H]1C[C@H]3[C@H](N(C)C)C(O)=C(C(N)=O)C(=O)[C@@]3(O)C(O)=C1C2=O [MI, minocycline] ?
Out: YES

In: Thanks! And CO[C@@H]1[C@@H](OC(N)=O)[C@@H](O)[C@H](Oc2ccc3c(O)c(NC(=O)c4ccc(O)c(CC=C(C)C)c4)c(=O)oc3c2C)OC1(C)C [NB, novobiocin] ?
Out: YES

In: Thanks! And CC(=O)NC[C@H]1CN(c2ccc(N3CCOCC3)c(F)c2)C(=O)O1 [LZD, linezolid] ?
Out: NO

---

# System: Unconfirmed Vancomycin-intermediate Staphylococcus aureus Isolates
# assay_name: MIC assay (NCCLS broth dilution), unconfirmed VISA isolates
# Format: cell-based
# condition_parameters: Staphylococcus aureus, Unconfirmed VISA isolate 2014, 03MAR06; read-out: Minimal Inhibitory Concentration
I'd be grateful if you could share measured MIC for these entries.
Hi! Could you send only the number? It should be in µg/mL, unit omitted.

In: Recorded MIC for CN(C)c1ccc(O)c2c1C[C@H]1C[C@H]3[C@H](N(C)C)C(O)=C(C(N)=O)C(=O)[C@@]3(O)C(O)=C1C2=O , please?
Out: 2

In: Thanks! And CO[C@@H]1[C@@H](OC(N)=O)[C@@H](O)[C@H](Oc2ccc3c(O)c(NC(=O)c4ccc(O)c(CC=C(C)C)c4)c(=O)oc3c2C)OC1(C)C ?
Out: 0.15

In: Thanks! And CC(=O)NC[C@H]1CN(c2ccc(N3CCOCC3)c(F)c2)C(=O)O1 ?
Out: 2

---

# Tested on: Methicillin-Resistant Staphylococcus aureus Isolates
# assay_name: MIC assay (NCCLS broth dilution), MRSA clinical isolates
# Assay type: cell-based
# condition_parameters: Staphylococcus aureus, MRSA isolate 763, 22FEB06; read-out: Minimal Inhibitory Concentration
I'd be grateful if you could share measured MIC for these entries.
Answer with the number, then the unit.

In: Recorded MIC for Cc1onc(-c2ccccc2)c1C(=O)N[C@@H]1C(=O)N2[C@@H]1SC(C)(C)[C@@H]2C(=O)O , please?
Out: 32 µg/mL

In: Thanks! And CN(C)[C@@H]1C(O)=C(C(N)=O)C(=O)[C@@]2(O)C(O)=C3C(=O)c4c(O)cccc4[C@@](C)(O)[C@H]3C[C@@H]12 ?
Out: 0.5 µg/mL

In: Thanks! And CN(C)c1ccc(O)c2c1C[C@H]1C[C@H]3[C@H](N(C)C)C(O)=C(C(N)=O)C(=O)[C@@]3(O)C(O)=C1C2=O ?
Out: 0.12 µg/mL

In: Thanks! And CO[C@@H]1[C@@H](OC(N)=O)[C@@H](O)[C@H](Oc2ccc3c(O)c(NC(=O)c4ccc(O)c(CC=C(C)C)c4)c(=O)oc3c2C)OC1(C)C ?
Out: 0.08 µg/mL

In: Thanks! And CC(=O)NC[C@H]1CN(c2ccc(N3CCOCC3)c(F)c2)C(=O)O1 ?
Out: 4 µg/mL

---

# Test system: Methicillin-Resistant Staphylococcus aureus Isolates
# assay_name: MIC assay (NCCLS broth dilution), MRSA clinical isolates
# Type: cell-based
# condition_parameters: Staphylococcus aureus, MRSA isolate 1661, 03MAR06; read-out: Minimal Inhibitory Concentration
quantity: MIC (µg/mL)
Hi! Could you send only the number? It should be in µg/mL, unit omitted.

In: Recorded MIC for CN(C)c1ccc(O)c2c1C[C@H]1C[C@H]3[C@H](N(C)C)C(O)=C(C(N)=O)C(=O)[C@@]3(O)C(O)=C1C2=O , please?
Out: 0.12

In: Thanks! And CC(=O)NC[C@H]1CN(c2ccc(N3CCOCC3)c(F)c2)C(=O)O1 ?
Out: 4

In: Thanks! And CN(C)[C@@H]1C(O)=C(C(N)=O)C(=O)[C@@]2(O)C(O)=C3C(=O)c4c(O)cccc4[C@@](C)(O)[C@H]3C[C@@H]12 ?
Out: 0.5

---

# Tested on: Methicillin-Resistant Staphylococcus aureus Isolates
# assay_name: MIC assay (NCCLS broth dilution), MRSA clinical isolates
# Format: cell-based
# condition_parameters: Staphylococcus aureus, MRSA isolate 772, 22FEB06; read-out: Minimal Inhibitory Concentration
I'd be grateful if you could share measured MIC for these entries.
Hi! Could you send only the number? It should be in µg/mL, unit omitted.

In: Recorded MIC for Cc1onc(-c2ccccc2)c1C(=O)N[C@@H]1C(=O)N2[C@@H]1SC(C)(C)[C@@H]2C(=O)O [OX, oxacillin] , please?
Out: 32

In: Thanks! And CN(C)c1ccc(O)c2c1C[C@H]1C[C@H]3[C@H](N(C)C)C(O)=C(C(N)=O)C(=O)[C@@]3(O)C(O)=C1C2=O [MI, minocycline] ?
Out: 0.12

In: Thanks! And CO[C@@H]1[C@@H](OC(N)=O)[C@@H](O)[C@H](Oc2ccc3c(O)c(NC(=O)c4ccc(O)c(CC=C(C)C)c4)c(=O)oc3c2C)OC1(C)C [NB, novobiocin] ?
Out: 0.15

In: Thanks! And CN(C)[C@@H]1C(O)=C(C(N)=O)C(=O)[C@@]2(O)C(O)=C3C(=O)c4c(O)cccc4[C@@](C)(O)[C@H]3C[C@@H]12 [TE, tetracycline] ?
Out: 0.5

In: Thanks! And CC(=O)NC[C@H]1CN(c2ccc(N3CCOCC3)c(F)c2)C(=O)O1 [LZD, linezolid] ?
Out: 2
